# TARGET OR SYSTEM: T1, LAG3 Protein, Human, Recombinant (His Tag) (Sino Biological Catalog No. 16498-H08H) (human, UniProt P18627 23-450)
# T1 construct: Bought protein; also called hLAG3-His; LAG3-His; not shown: His tag
# T1 sequence (looked up): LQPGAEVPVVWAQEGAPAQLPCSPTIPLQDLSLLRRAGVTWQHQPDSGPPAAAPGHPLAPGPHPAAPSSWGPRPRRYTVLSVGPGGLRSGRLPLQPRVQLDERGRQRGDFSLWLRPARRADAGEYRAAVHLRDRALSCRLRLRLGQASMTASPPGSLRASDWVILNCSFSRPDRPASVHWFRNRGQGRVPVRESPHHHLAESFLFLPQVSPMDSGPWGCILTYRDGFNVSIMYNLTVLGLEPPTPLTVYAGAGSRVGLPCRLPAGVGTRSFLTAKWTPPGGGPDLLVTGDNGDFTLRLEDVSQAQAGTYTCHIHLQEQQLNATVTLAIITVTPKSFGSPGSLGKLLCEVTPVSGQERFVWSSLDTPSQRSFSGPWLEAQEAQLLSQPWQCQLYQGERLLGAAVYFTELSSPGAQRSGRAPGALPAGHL
# TEST SUMMARY: ELISA, coated hLAG3-His
# Method: Plates were coated with 100 µL per well of Coating Solution, and then covered, and incubated overnight (12-18 hours) at 2-8° C. The wells were aspirated and washed 1 time with >200 µL of Wash buffer per well, inverted and tapped on absorbent paper to remove excess liquid. […] The primary antibody solution was diluted with Blocking buffer. […] Absorbance at 450 nm was measured within 30 minutes of adding Stop solution. Results were calculated using a log-log or 4-parameter curve fit.
Would you mind telling me the reported OD450 at 0.5487 nM of each entry?
Numbers only.

- BINDER: "sdAb No. 25-B5 (VHH, Humanized sdAb No. 25; not shown: Fc part implied by anti-human IgG1 Fc detection) VHH: QVQLVESGGGLVKPGGSLRLSCAASGSIESFSFMGWYRQAPGKQREWVAGFTGAASLSFSTYTDAVKGRFTISRDNAKNSLYLQMNSLRAEDTAVYYCNVDPWSQSWPGRYWGQGTTVTVSS"
  OD450 at 0.5487 nM: 0.038

With those in mind, consider the next binder.
Asked: Requested field: OD450 at 0.5487 nM. Item: sdAb No. 27 (VHH, Fc of the tested form not described; also called sdAb 27; not shown: Fc part implied by anti-human Fc capture and anti-human IgG Fc detection) VHH: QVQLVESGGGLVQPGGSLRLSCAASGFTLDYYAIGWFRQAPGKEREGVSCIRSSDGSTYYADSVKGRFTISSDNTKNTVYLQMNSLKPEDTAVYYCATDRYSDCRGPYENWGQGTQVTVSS
Given back: 0.059
